Values compiled from patent US11802113B2.

# half-life at 1 μM per entry
test: Metabolic stability evaluation, rat liver microsome; type: in vitro ADME; conditions: SD, liver microsomes, pH 7.4; rat liver microsome 0.5 mg/mL, compound 1 μM, NADPH, 37° C.; read-out: RLM T1/2
// note: answer is a bare numeric in h

> print(dat)
                                   compound  recorded.result
1  [2H]C([2H])([C@H](C)NC(=O)c1cc(C([2H])(O)C([2H])([2H])[2H])[nH]n1)n1ccc(-c2ccc(C#N)c(Cl)c2)n1 (some centres unmarked)             3.25

Could you now look at the following compound, please?
q: Could you share which half-life at 1 μM value was measured for CC(O)c1cc(C(=O)N[C@@H](C)Cn2ccc(-c3ccc(C#N)c(Cl)c3)n2)[nH]n1 (some centres unmarked) [Darolutamide, reference compound] ?
a: 1.9

* * *

experiment: Metabolic stability evaluation, human liver microsome; format: in vitro ADME; settings: liver microsomes, pH 7.4; human liver microsome 0.5 mg/mL, compound 1 μM, NADPH, 37° C.; read-out: HLM T1/2
# half-life at 1 μM per entry
// note: answer is a bare numeric in h

compound	assay.readout	recorded.result
[2H]C([2H])([2H])C(O)c1cc(C(=O)N[C@@H](C)C([2H])([2H])n2ccc(-c3ccc(C#N)c(Cl)c3)n2)n[nH]1 (some centres unmarked) [Example 6]	half-life at 1 μM	3.62

q: Could you share which half-life at 1 μM value was measured for [2H]C([2H])([2H])C(O)c1cc(C(=O)N[C@@H](C)Cn2ccc(-c3ccc(C#N)c(Cl)c3)n2)n[nH]1 (some centres unmarked) [Example 2] ?
a: 2.55

* * *

assay: Metabolic stability evaluation, human liver microsome; assay type: in vitro ADME; conditions: liver microsomes, pH 7.4; human liver microsome 0.5 mg/mL, compound 1 μM, NADPH, 37° C.; read-out: HLM CL
assay.readout: microsomal CLint at 1 μM
# output: number + unit

q: Could you share which microsomal CLint at 1 μM value was measured for [2H]C(C)(O)c1cc(C(=O)N[C@@H](C)Cn2ccc(-c3ccc(C#N)c(Cl)c3)n2)n[nH]1 (some centres unmarked) ?
a: 6.2 µL/min/mg

q: Same thing, different molecule: [2H]C([2H])([2H])C(O)c1cc(C(=O)N[C@@H](C)Cn2ccc(-c3ccc(C#N)c(Cl)c3)n2)n[nH]1 (some centres unmarked)
a: 9.1 µL/min/mg

q: Same thing, different molecule: [2H]C(C)(O)c1cc(C(=O)N[C@@H](C([2H])([2H])[2H])C([2H])([2H])n2ccc(-c3ccc(C#N)c(Cl)c3)n2)n[nH]1 (some centres unmarked)
a: 4.4 µL/min/mg

q: Same thing, different molecule: [2H]C([2H])([2H])C(O)c1cc(C(=O)N[C@@H](C)C([2H])([2H])n2ccc(-c3ccc(C#N)c(Cl)c3)n2)n[nH]1 (some centres unmarked)
a: 6.4 µL/min/mg

q: Same thing, different molecule: [2H]C(C)(O)c1cc(C(=O)N[C@@H](C)C([2H])([2H])n2ccc(-c3ccc(C#N)c(Cl)c3)n2)n[nH]1 (some centres unmarked)
a: 4.3 µL/min/mg

q: Same thing, different molecule: [2H]C([2H])([2H])[C@H](NC(=O)c1cc(C(C)O)[nH]n1)C([2H])([2H])n1ccc(-c2ccc(C#N)c(Cl)c2)n1 (some centres unmarked)
a: 8.1 µL/min/mg

q: Same thing, different molecule: [2H][C@](C)(Cn1ccc(-c2ccc(C#N)c(Cl)c2)n1)NC(=O)c1cc(C(C)O)[nH]n1 (some centres unmarked)
a: 7.3 µL/min/mg

q: Same thing, different molecule: [2H]C([2H])([2H])C([2H])(O)c1cc(C(=O)N[C@@H](C)Cn2ccc(-c3ccc(C#N)c(Cl)c3)n2)n[nH]1 (some centres unmarked)
a: 4 µL/min/mg
